# Test system: RXF 393 renal
# Experiment summary: NCI tumour cell line growth inhibition, 48 h
# GI50 listing for each entry below

[
  {
    "Compound": "CC1SC2(CCC(c3ccccc3)CC2)N(NC(=O)c2[nH]c3ccc(F)cc3c2-c2ccccc2)C1=O (configuration not stated)",
    "GI50": "2.22 µM"
  },
  {
    "Compound": "CC(=O)[CH-]C(=O)c1ccccc1.CC(=O)[CH-]C(=O)c1ccccc1.CC1(C)OCC(C2OC3OC(C)(C)OC3C2[O-])O1.CC1(C)OCC(C2OC3OC(C)(C)OC3C2[O-])O1.[Ti+4] (configuration not stated)",
    "GI50": "12.5 µM"
  },
  {
    "Compound": "O=C1CCCCC=C1C[N+](=O)[O-]",
    "GI50": "14.7 µM"
  },
  {
    "Compound": "CO[C@]12C=C/C(=C(/C(=O)OCc3cccnc3)C(=O)CCCCCCCC[C@@]3(OC)C=C/C(=C(/C(=O)OCc4cccnc4)C(=O)CCCCCCCC1)O3)O2",
    "GI50": "0.915 µM"
  },
  {
    "Compound": "Cc1ccc(/C=C/C(=N/N=C(N)N)c2ccccc2)cc1",
    "GI50": "1.62 µM"
  },
  {
    "Compound": "COc1ccc(-c2nc(Nc3ccc(-c4nc5ccccc5[nH]4)cc3)nc(N3CCOCC3)n2)cc1",
    "GI50": "0.459 µM"
  },
  {
    "Compound": "C=C(C)C1CC=C(C)CC1 (configuration not stated)",
    "GI50": "> 100 µM"
  },
  {
    "Compound": "CCCCCCCCCCCCCCCC(=O)N[C@H](/C=C/[C@H](O)CCCCCCCCCCCCC)CO",
    "GI50": "> 100 µM"
  },
  {
    "Compound": "c1ccc(Nc2nc(-c3ccccn3)cs2)nc1",
    "GI50": "1.98 µM"
  },
  {
    "Compound": "O=C(O)C1C2C=CC(C2)C1C(=O)O (configuration not stated)",
    "GI50": "> 100 µM"
  },
  {
    "Compound": "Clc1nc(Cl)c2c3c(sc2n1)CCCC3",
    "GI50": "4.06 µM"
  },
  {
    "Compound": "CC1=C(C(=O)Nc2ccc3[nH]ncc3c2)C(c2ccc(Cl)c(Cl)c2)CC(=O)N1 (configuration not stated)",
    "GI50": "8.2 µM"
  }
]
